method: Selectivity index, ratio of IC50 for mouse L929 cells to IC50 for human HT1080 cells
Format: toxicity
applied-conditions: L929 cells versus HT1080 cells, read-out: Ratio IC50
assay-endpoint: selectivity ratio
// no unit, no text: just the number

-- ask Which selectivity ratio reading was recorded for the compound COc1cc(C(=O)c2nc(-c3ccc(C)cc3)n[nH]2)cc(OC)c1OC ?
-- reply 65.5

-- ask Now consider COc1cc2c(c(OC)c1OC)-c1ccc(OC)c(=O)cc1[C@@H](NC(C)=O)CC2 [COLCHICINE] and answer again.
-- reply 24

----------
method: Selectivity index, ratio of IC50 for mouse L929 cells to IC50 for human SGC7901 cells
Type: toxicity
applied-conditions: L929 cells versus SGC7901 cells, read-out: Ratio IC50
assay-endpoint: selectivity ratio
I'd appreciate a reply containing only the number, no unit.

-- ask Given the entry COc1cc(C(=O)c2nc(-c3ccc(C)cc3)n[nH]2)cc(OC)c1OC , report its measured selectivity ratio.
-- reply 112

-- ask Thanks! And COc1cc2c(c(OC)c1OC)-c1ccc(OC)c(=O)cc1[C@@H](NC(C)=O)CC2 ?
-- reply 7.5
